FYI, the data here is from the supplement of paper PMC10567573.

# Method Notes: protein stability index of a GFP-peptide fusion (GPS, HEK-293T) (PSI 1-6); higher = more stable;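 further: 24-mer peptide tiles fused after GFP, lentivirally expressed, FACS-sorted into six equal bins by GFP/DsRed ratio, decoded by Illumina sequencing, PSI is the read-weighted mean bin number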
# Test Parameters: treatment: MLN4924 1 uM, 8 h; c terminus: a fixed tail appended
Parameter protein stability index: see the listing below.
I'd appreciate a reply containing only the number, no unit.

Record excerpt, results attached:
[
  {
    "Item Sequence": "EETIASLQMEVCRLKKEEEDRIVT [CEP70]",
    "protein stability index": 4.8
  },
  {
    "Item Sequence": "QVGAKGDTANEIGQVLHFENVKDV [SERPINB5]",
    "protein stability index": 5.19
  },
  {
    "Item Sequence": "KYFGCELGAQTQFDVKNDRYIVNG [EIF5]",
    "protein stability index": 3.27
  }
]

Ask | Which protein stability index is listed for KDLQKEQKTLQVKCQHYKKKRTEQ [CEP70] ?
Reply | 4.87

Ask | State the recorded protein stability index for this entry: AMAMGTPSTTERISTSGQAGTSSH [PXN]
Reply | 4.98

Ask | For IESERALISQCGKPVVNVSYRPAY [DUSP5] , what is its reported protein stability index?
Reply | 2.82

Ask | # query: protein stability index of entry EEEEERWEWSPAGLQSYQQALLRI [SERTAD3]
Reply | 3.43
